Tested on: UMB1949 (TSC2-deficient)
Assay: relative viability vs DMSO (fraction); higher = less cytotoxic
Settings: 5000 nM; serum: 0.1% FBS; 72 h
relative viability values for the compounds below.
# answer = number (no unit)

CCC[C@H](NC(=O)/C(C#N)=C/c1cccc(Br)n1)c1ccccc1 = 0.00472
O=C(Cc1ccc(-c2ccc(OCCN3CCOCC3)cc2)cn1)NCc1ccccc1 = 0.00418
CO[C@H]1C[C@@H]2CC[C@@H](C)[C@@](O)(O2)C(=O)C(=O)N2CCCC[C@H]2C(=O)O[C@H]([C@H](C)C[C@@H]2CC[C@@H](OP(C)(C)=O)[C@H](OC)C2)CC(=O)[C@H](C)/C=C(\C)[C@@H](O)[C@@H](OC)C(=O)[C@H](C)C[C@H](C)/C=C/C=C/C=C/1C = 0.459
CCC[C@H](Nc1nc(-c2ccc(NC(=O)NCC)c(OC)c2)ncc1C)c1cccnc1 = 0.00511
CO[C@@H](C(=O)N1Cc2[nH]nc(NC(=O)c3ccc(N4CCN(C)CC4)cc3)c2C1)c1ccccc1 = 0.000648
O=C(Nc1c[nH]nc1-c1nc2ccc(CN3CCOCC3)cc2[nH]1)NC1CC1 = 0.00115

Now let's try a different one.
Field request: relative viability | item: `COC(=O)Nc1nc2cc(Sc3ccccc3)ccc2[nH]1`
0.00375

---

Tested on: 621-102 (TSC2-deficient)
Experiment: relative viability vs DMSO; higher = less cytotoxic
Details: 0.01 µM; serum: 10% FBS; 72 h
Structures can show the parent of a compound that is named as a salt.
property measured: relative viability (%)
Please respond with the number in % and leave the unit unwritten.

Consider the reported relative viability for these compounds:
CS(=O)(=O)N1CCN(Cc2cc3nc(-c4cccc5[nH]ncc45)nc(N4CCOCC4)c3s2)CC1 = 115
COCCCOc1cc(C[C@@H](C[C@H](N)[C@@H](O)C[C@H](C(=O)NCC(C)(C)C(N)=O)C(C)C)C(C)C)ccc1OC [Aliskiren hemifumarate] = 106
CN(C)CCOC(c1ccccc1)c1ccccc1 [Diphenhydramine HCl] = 99.9
CCN(CC)Cc1ccc2cc(COC(=O)Nc3ccc(C(=O)NO)cc3)ccc2c1 = 95.9
CCCCC1=NC2(CCCC2)C(=O)N1Cc1ccc(-c2ccccc2-c2nnn[nH]2)cc1 = 105

Field request: relative viability | item: `Cc1ccccc1-n1c(Cn2ncc3c(N)ncnc32)nc2cccc(C)c2c1=O`
108

`Cc1ncc(-c2ccnc(Nc3ccc(S(C)(=O)=O)cc3)n2)n1C(C)C` ?
95.4

`O=C(Nc1c[nH]nc1-c1nc2ccc(CN3CCOCC3)cc2[nH]1)NC1CC1` ?
106

CC(C)C(=O)Oc1ccc(CO)cc1[C@H](CCN(C(C)C)C(C)C)c1ccccc1 [Fesoterodine fumarate (Toviaz)] ?
102

`CCCS(=O)(=O)Nc1ccc(F)c(C(=O)c2c[nH]c3ncc(Cl)cc23)c1F` ?
107

CN1[C@@H]2CC[C@H]1C[C@@H](OC(=O)c1c[nH]c3ccccc13)C2 [Tropisetron HCl] ?
99.6

OC(CN1CCN(c2cccc(Cl)c2)CC1)C(c1ccccc1)c1ccccc1 (stereo not given) ?
104

`COC(=O)N[C@H](C(=O)N1CCC[C@H]1c1ncc(-c2ccc(-c3ccc(-c4cnc([C@@H]5CCCN5C(=O)[C@@H](NC(=O)OC)C(C)C)[nH]4)cc3)cc2)[nH]1)C(C)C` ?
106

COc1ccc2[nH]c([S@@+]([O-])Cc3ncc(C)c(OC)c3C)nc2c1 [Esomeprazole sodium (Nexium I.V.)] ?
107

`O=C(O)c1ccc2c(c1)nc(Nc1cccc(Cl)c1)c1ccncc12` ?
102

---

System: 621-103 (TSC2-rescued)
Assay: relative viability vs DMSO; higher = less cytotoxic
Details: 0.1 µM; serum: 10% FBS; 72 h
Structures can show the parent of a compound that is named as a salt.
property measured: relative viability (%)
Please respond with the number in % and leave the unit unwritten.

CCCCN1CCCCC1C(=O)Nc1c(C)cccc1C (stereo unspecified) [Bupivacaine HCl (marcain)] = 104
COc1cc2c(N3CCN(C(=O)Nc4ccc(OC(C)C)cc4)CC3)ncnc2cc1OCCCN1CCCCC1 [Tandutinib (MLN518)] = 101
CCOC(=O)C1=C(C)NC(C)=C(C(=O)OC)C1c1cccc(Cl)c1Cl (stereo unspecified) [Felodipine] = 98.2

Field request: relative viability | item: CO[C@H]1C[C@@H]2CC[C@@H](C)[C@@](O)(O2)C(=O)C(=O)N2CCCC[C@H]2C(=O)O[C@H]([C@H](C)C[C@@H]2CC[C@@H](OC(=O)C(C)(CO)CO)[C@H](OC)C2)CC(=O)[C@H](C)/C=C(\C)[C@@H](O)[C@@H](OC)C(=O)[C@H](C)C[C@H](C)/C=C/C=C/C=C/1C [Temsirolimus]
83.1

CCN(CC)Cc1ccc2cc(COC(=O)Nc3ccc(C(=O)NO)cc3)ccc2c1 [ITF2357] ?
67.6

CCC(C)n1ncn(-c2ccc(N3CCN(c4ccc(OCC5COC(Cn6cncn6)(c6ccc(Cl)cc6Cl)O5)cc4)CC3)cc2)c1=O (stereo unspecified) [Itraconazole (Sporanox)] ?
97.5

---

Test system: 621-103 (TSC2-rescued)
Assay: relative viability vs DMSO; higher = less cytotoxic
Settings: 0.0001 µM; serum: 10% FBS; 72 h
Counter-ions that a name gives are not always drawn.
property measured: relative viability (%)
Please respond with the number in % and leave the unit unwritten.

Consider the reported relative viability for these compounds:
O=C1N=C(O)NC1(c1ccccc1)c1ccccc1 [Phenytoin sodium] = 105
Oc1c2ccccc2c2c3c(cccc13)N=N2 = 101
CN1CCCC(n2nc(Cc3ccc(Cl)cc3)c3ccccc3c2=O)CC1 (centres undefined) [Azelastine HCl (Astelin)] = 101
CCN(CC)CCOc1ccc(C(=C(Cl)c2ccccc2)c2ccccc2)cc1 [Clomifene citrate (Serophene)] = 102

Field request: relative viability | item: `Cn1cc(/C=C/C(=O)c2cccc(F)c2)cc1/C=C/C(=O)NO`
100

`Cc1cnc(Nc2ccc(N3CCN(C)CC3)cc2)nc1Nc1cccc(S(=O)(=O)NC(C)(C)C)c1` ?
102

N=C(N)NC(=N)NCCc1ccccc1 [Phenformin HCl] ?
101

CNC(=C[N+](=O)[O-])NCCSCc1ccc(CN(C)C)o1 [Ranitidine HCl] ?
107

COC1=CC(c2cc3ccccc3[nH]2)=N/C1=C\c1[nH]c(C)cc1C [Obatoclax Mesylate] ?
103

---

Test system: 621-102 (TSC2-deficient)
Assay: relative viability vs DMSO; higher = less cytotoxic
Conditions: 10 µM; serum: 10% FBS; 72 h
relative viability values for the compounds below.
Please respond with the number in % and leave the unit unwritten.

Consider the reported relative viability for these compounds:
CC[C@H](Nc1ncnc2[nH]cnc12)c1nc2cccc(F)c2c(=O)n1-c1ccccc1 [CAL-101] = 92.4
COCCOC(=O)C1=C(C)NC(C)=C(C(=O)OC/C=C/c2ccccc2)C1c1cccc([N+](=O)[O-])c1 (stereo unspecified) [Cilnidipine] = 98
NC(=O)c1ccc(-c2nc(-c3ccccn3)c(-c3ccc4c(c3)OCO4)[nH]2)cc1 = 107

Hi! What's the reported relative viability for CC(C)C[C@@H](C(=O)N[C@H](C(=O)OC1CCCC1)c1ccccc1)[C@H](O)C(=O)NO [CHR-2797] on 621-102 (TSC2-deficient)?
82

CC(C[N+](C)(C)C)OC(N)=O (stereo unspecified) [Bethanechol chloride] ?
101

Cc1ccc(NC(=O)c2ccc(CN3CCN(C)CC3)cc2)cc1Nc1nc(-c2cccnc2)cs1 [Masitinib (AB1010)] ?
53.4

---

System: UMB1949 (TSC2-deficient);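 also: renal angiomyolipoma cell lines screened in 384-well plates, viability normalized per plate to DMSO-treated cells, each plate carrying 50 nM rapamycin and 1 µM staurosporine controls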
Experiment: relative viability vs DMSO (fraction); higher = less cytotoxic
Settings: 40 nM; serum: 0.1% FBS; 72 h
Where a name gives a salt, the structure may show the parent alone.
property measured: relative viability
# answer = number (no unit)

Consider the reported relative viability for these compounds:
Cc1ccc(C(=O)Nc2cccc(C(F)(F)F)c2)cc1Nc1nc(-c2cccnc2)nc2c1cnn2C = 1.14
Nc1ccn([C@@H]2O[C@H](CO)[C@@H](O)[C@@H]2O)c(=O)n1 = 0.929
CC(C)(C)c1cnc(CSc2cnc(NC(=O)C3CCNCC3)s2)o1 = 0.771
Cc1cc(Nc2cc(N3CCN(C)CC3)nc(Sc3ccc(NC(=O)C4CC4)cc3)n2)n[nH]1 = 0.0297
Cc1ccc(NC(=O)c2ccc(CN3CCN(C)CC3)cc2)cc1Nc1nc(-c2cccnc2)cs1 = 1.19

Field request: relative viability | item: `O=c1cc(N2CCOCC2)oc2c(-c3cccc4c3sc3ccccc34)cccc12`
0.85

`O=C(/C=C/c1ccc(CN(CCO)CCc2c[nH]c3ccccc23)cc1)NO` ?
0.00199

CN1CC[C@H](c2c(O)cc(O)c3c(=O)cc(-c4ccccc4Cl)oc23)[C@H](O)C1 [Flavopiridol hydrochloride] ?
0.855

The measurements presented in this section are drawn from the supplement of paper PMC8960247.
